tested on: E. coli APEC O2; assay: MIC, serial dilution method (CLSI); format: cell-based, Escherichia coli; details: Escherichia coli, APECO2, 24 h; read-out: MIC
readoutKind: MIC (µg/mL)

In the examples that follow, each entry is paired with its recorded MIC.
1) CCCCC[N+]1(C)CCCCC1CCN1c2ccccc2Sc2ccc(SC)cc21.[Br-] (centres unmarked) :: 64
2) CC[N+](C)(C)CCCN1c2ccccc2Sc2ccc(Cl)cc21.[Br-] :: 256
3) CC(C)CC[N+](C)(C)CC/C=C1/c2ccccc2Sc2ccc(Cl)cc21.[Br-] :: 64
4) CC(C)[N+](C)(C)CCCN1c2ccccc2Sc2ccc(Cl)cc21.[Br-] :: 128

A. C=CC[N+]1(C)CCCCC1CCN1c2ccccc2Sc2ccc(SC)cc21.[Br-] (centres unmarked)
B. CCCCC[N+](C)(C)C(C)CN1c2ccccc2Sc2ccccc21.[Br-] (centres unmarked)
Between A and B , whose recorded MIC is greater? // respond with label for picked entry
A
(A: 256 µg/mL, B: 64 µg/mL)

====

Tested on: E. coli APEC O2
Assay: MIC, serial dilution method (CLSI)
Format: cell-based, Escherichia coli
Conditions: Escherichia coli, APECO2, 24 h; read-out: MIC
Description: These inoculums were each in diluted 1:100 in Müller Hinton (MH) broth (Sigma, Copenhagen, Denmark). From the diluted inoculums 100 μl was transferred to each well in a 96-well plate and mixed with the compound to be MIC determined. The plate was incubated for 24 hours at 37° C. (without shaking). The MIC value was determined as the lowest concentration in which no bacterial growth could be visually detected. All MIC determinations were done in duplicates. […]
readoutKind: MIC (µg/mL)

1. C[N+](C)(C)CCCN1c2ccccc2Sc2ccc(Cl)cc21.[I-] :: 256
2. C=CC[N+](C)(C)CCCN1c2ccccc2Sc2ccc(Cl)cc21.[Br-] :: 256
3. CCCCCCCCCCCC[N+](C)(C)CCCN1c2ccccc2Sc2ccc(Cl)cc21.[Br-] :: 4
4. CSc1ccc2c(c1)N(CCC1CCCC[N+]1(C)C)c1ccccc1S2.[I-] (stereo not shown) :: 256

====

Tested on: E. coli APEC O2
Experiment: MIC, serial dilution method (CLSI)
Type: cell-based, Escherichia coli
Conditions: Escherichia coli, APECO2, 24 h; read-out: MIC
Experimental: These inoculums were each in diluted 1:100 in Müller Hinton (MH) broth (Sigma, Copenhagen, Denmark). From the diluted inoculums 100 μl was transferred to each well in a 96-well plate and mixed with the compound to be MIC determined. The plate was incubated for 24 hours at 37° C. (without shaking). The MIC value was determined as the lowest concentration in which no bacterial growth could be visually detected. All MIC determinations were done in duplicates. […]
readoutKind: MIC (µg/mL)

A. CC[N+](C)(C)C(C)CN1c2ccccc2Sc2ccccc21.[Br-] (stereo not shown)
B. CSc1ccc2c(c1)N(CCC1CCCC[N+]1(C)CCC(C)C)c1ccccc1S2.[Br-] (stereo not shown)
Looking at A and B , which one comes out lower in MIC terms? Answer format: the label of the selected item.
B

====

tested on: Salmonella enteritidis; experiment: MIC, serial dilution method (CLSI); format: cell-based; settings: Salmonella enterica, ENTERITIDIS, 24 h; read-out: MIC
readoutKind: MIC (µg/mL)

As a guide, the following entries are already answered.
1) CSc1ccc2c(c1)N(CCC1CCCC[N+]1(C)C)c1ccccc1S2.[I-] (centres unmarked) :: 128
2) CC[N+](C)(C)CC/C=C1/c2ccccc2Sc2ccc(Cl)cc21.[Br-] :: 256
3) CC[N+](C)(C)C(C)CN1c2ccccc2Sc2ccccc21.[Br-] (centres unmarked) :: 256

1. C[N+](C)(C)CC/C=C1/c2ccccc2Sc2ccc(Cl)cc21.[I-]
2. CC(C)[N+](C)(C)CCCN1c2ccccc2Sc2ccc(Cl)cc21.[Br-]
Which is greater in MIC, the first item 1 or the second item 2 ? Answer = label.
1
